B1: library; numbered along this chain (parent)
chain: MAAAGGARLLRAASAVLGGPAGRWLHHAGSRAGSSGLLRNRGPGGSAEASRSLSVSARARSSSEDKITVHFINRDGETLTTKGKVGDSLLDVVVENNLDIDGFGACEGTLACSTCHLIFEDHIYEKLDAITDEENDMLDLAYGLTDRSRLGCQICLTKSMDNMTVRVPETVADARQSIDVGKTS

Variants of: B1
Assay: scaled log2 fold change in cell abundance, elesclomol vs control (0 = silent mean, 1 = nonsense mean) (scaled log2 ratio); higher = higher viability under elesclomol (loss of FDX1 cuproptosis function);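 note: variant abundance is its share of total variant reads in each endpoint sample, from next-generation sequencing of the integrated ORF PCR-amplified out of genomic DNA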
Settings: with ABC1 FDX1 KO; elesclomol 5 nM; glucose 10 mM; 14 days
recorded-endpoint: scaled log2 fold change
The answer should be written as a number, with no unit following it.

{"mutations": "D161W", "measurement": 0.197}
{"mutations": "A3H", "measurement": 0.204}
{"mutations": "L9D", "measurement": 0.403}

-- ask Need scaled log2 fold change, item K66P
-- reply -0.38

-- ask Also need L150E , thanks.
-- reply 0.981

-- ask Also need N96A , thanks.
-- reply -0.307

-- ask Also need V16Y , thanks.
-- reply 0.461

-- ask Also need A7E , thanks.
-- reply 0.407

-- ask Also need V16E , thanks.
-- reply -0.716
